ASSAY_TARGET: T1, GST-thCENP-K^ΔN75
T1 chain: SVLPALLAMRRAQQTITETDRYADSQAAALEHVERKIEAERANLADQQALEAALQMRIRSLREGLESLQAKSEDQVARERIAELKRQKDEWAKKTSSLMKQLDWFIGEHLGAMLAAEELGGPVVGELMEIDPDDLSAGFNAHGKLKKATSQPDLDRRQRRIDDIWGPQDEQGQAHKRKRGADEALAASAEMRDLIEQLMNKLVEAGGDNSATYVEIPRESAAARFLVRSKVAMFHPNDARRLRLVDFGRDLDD
ASSAY_TEXT: GST pull-down
MEASUREMENT_SETUP: chain shown with the change;; parent: est. 1.0; read off a plot
REPORTED_METRIC: ratio to parent

Sample answers from the record:
// query Looking for the measured ratio to parent of full-length T. terrestris CENP-H (thCENP-H) I211A (protein) MAATASTATPTPLPHFTEREASVLALYDRLRQLQLELALLTSQRSHGVIETSASRRAENDLAVDEARLLEARATLDLRDSVVENVVTLQPILNAVHHATHASPLERDLLPYTEQRDATATKVASLCADLDSAWGRLAELETESLRATQRNMELASEVLRLAAGTNDKTPSQLEGGRLEMELAGHEAEMKSNRRRWRIMKGAASAIVAGSGADWVRDERLRDLVLDLPD , can you help?
// result 0.7

// query # repeat for full-length T. terrestris CENP-H (thCENP-H) R220E; L224A (protein) MAATASTATPTPLPHFTEREASVLALYDRLRQLQLELALLTSQRSHGVIETSASRRAENDLAVDEARLLEARATLDLRDSVVENVVTLQPILNAVHHATHASPLERDLLPYTEQRDATATKVASLCADLDSAWGRLAELETESLRATQRNMELASEVLRLAAGTNDKTPSQLEGGRLEMELAGHEAEMKSNRRRWRIMKGAASAIVAGSGIDWVRDERLEDLVADLPD
// result 1.1

Let us examine a further case.
// query Looking for the measured ratio to parent of full-length T. terrestris CENP-H (thCENP-H) R220E (protein) MAATASTATPTPLPHFTEREASVLALYDRLRQLQLELALLTSQRSHGVIETSASRRAENDLAVDEARLLEARATLDLRDSVVENVVTLQPILNAVHHATHASPLERDLLPYTEQRDATATKVASLCADLDSAWGRLAELETESLRATQRNMELASEVLRLAAGTNDKTPSQLEGGRLEMELAGHEAEMKSNRRRWRIMKGAASAIVAGSGIDWVRDERLEDLVLDLPD , can you help?
// result 1.1

Taken from paper PMC6326798.
